- subject.of.test: NK1 (Homo sapiens)
- assay.notes: Signal transduction (ST), intracellular Ca++ (FLIPR), NK1 antagonistic activity
- Type: cell-based
- protocol.conditions: read-out: pIC50 NK1 (converted)
- Procedure: This test evaluates in vitro functional NK1 antagonistic activity. For the measurements of intracellular Ca^++ concentrations the cells were grown on 96-well (black wall/transparent bottom) plates from Costar for 2 days until they reached confluence. […] The cells were preincubated with a concentration range of antagonists for 20 min at RT and Ca^++-signals after addition of the agonists were measured in a Fluorescence Image Plate Reader (FLIPR from Molecular Devices, Crawley, England). […]
Each item that follows carries a reported IC50.
readout.label: IC50 (nM)

INSERT INTO assay_data (compound, unit_spec, endpoint_result) VALUES
  ('O=C(C1CCCCC1)N1CCC(N2CCN(C3CCN(C(=O)c4cc(C(F)(F)F)cc(C(F)(F)F)c4)C(Cc4ccccc4)C3)CC2)C1 (single isomer, unassigned) [Compound 403]', 'nM', 7.94),
  ('COc1cc(CC(=O)N2CCC(N3CCN([C@H]4CCN(C(=O)c5cc(C(F)(F)F)cc(C(F)(F)F)c5)[C@H](Cc5ccccc5)C4)CC3)C2)cc(OC)c1OC (stereo partly shown)', 'nM', 12.6),
  ('O=C(c1ccsc1)N1CC[C@@H](N2CCN([C@H]3CCN(C(=O)c4cc(C(F)(F)F)cc(C(F)(F)F)c4)[C@H](Cc4ccc(Cl)c(Cl)c4)C3)CC2)C1', 'nM', 12.6),
  ('CC(C(=O)N1CCC(N2CCN(C3CCN(C(=O)c4cc(C(F)(F)F)cc(C(F)(F)F)c4)C(Cc4ccc(Cl)c(Cl)c4)C3)CC2)C1)c1ccccc1 (stereo not shown)', 'nM', 20);

====

- subject.of.test: NK1 (Homo sapiens, UniProt P25103)
- Sequence (P25103 whole entry): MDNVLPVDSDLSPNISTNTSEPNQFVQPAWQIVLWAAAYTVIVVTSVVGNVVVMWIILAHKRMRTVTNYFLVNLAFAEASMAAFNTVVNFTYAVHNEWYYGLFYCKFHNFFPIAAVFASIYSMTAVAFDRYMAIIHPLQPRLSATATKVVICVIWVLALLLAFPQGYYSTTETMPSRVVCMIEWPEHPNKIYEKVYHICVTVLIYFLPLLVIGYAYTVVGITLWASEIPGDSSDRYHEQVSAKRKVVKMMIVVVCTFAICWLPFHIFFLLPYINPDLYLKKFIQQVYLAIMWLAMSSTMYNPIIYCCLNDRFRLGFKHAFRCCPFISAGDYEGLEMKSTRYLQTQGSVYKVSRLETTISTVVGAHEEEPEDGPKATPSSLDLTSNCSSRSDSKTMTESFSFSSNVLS
- assay.notes: Signal transduction (ST), intracellular Ca++ (FLIPR), NK1 antagonistic activity
- Assay type: cell-based
- protocol.conditions: read-out: pIC50 NK1 (converted)
Okay, here is how we bin by IC50: bin 0 = under 20 nM, bin 1 = from 20 nM up to 40 nM, bin 2 = 40 nM and over

INSERT INTO assay_data (molecule, label) VALUES
  ('Cc1ccc(C(=O)N2CCC(N3CCN([C@H]4CCN(C(=O)c5cc(C(F)(F)F)cc(C(F)(F)F)c5)[C@H](Cc5ccccc5)C4)CC3)C2)s1 (stereo partly drawn)', 'bin 1'),
  ('O=C(c1cc(CCO)cs1)N1CCC(N2CCN([C@H]3CCN(C(=O)c4cc(C(F)(F)F)cc(C(F)(F)F)c4)[C@H](Cc4ccccc4)C3)CC2)C1 (stereo partly drawn)', 'bin 0'),
  ('O=C(c1cc2ccccc2o1)N1CCC(N2CCN([C@H]3CCN(C(=O)c4cc(C(F)(F)F)cc(C(F)(F)F)c4)[C@H](Cc4ccccc4)C3)CC2)C1 (stereo partly drawn)', 'bin 2'),
  ('O=C(c1cc(C(F)(F)F)cc(C(F)(F)F)c1)N1CC[C@H](N2CCN(C3CCNC3)CC2)C[C@@H]1Cc1ccccc1 (stereo partly drawn)', 'bin 2'),
  ('O=C(C(c1ccccc1)n1cc(Br)cn1)N1CCC(N2CCN([C@H]3CCN(C(=O)c4cc(C(F)(F)F)cc(C(F)(F)F)c4)[C@H](Cc4ccccc4)C3)CC2)C1 (stereo partly drawn)', 'bin 2'),
  ('CC1(C(=O)N2CCC(N3CCN([C@H]4CCN(C(=O)c5cc(C(F)(F)F)cc(C(F)(F)F)c5)[C@H](Cc5ccccc5)C4)CC3)C2)CC1 (stereo partly drawn)', 'bin 0'),
  ('O=C(c1ccsc1)N1CCC(N2CCN(C3CCN(C(=O)c4cc(C(F)(F)F)cc(C(F)(F)F)c4)C(Cc4ccc(F)cc4)C3)CC2)C1 (stereo not drawn)', 'bin 0'),
  ('O=C(c1cc(C(F)(F)F)cc(C(F)(F)F)c1)N1CC[C@H](N2CCN(C3CCN(S(=O)(=O)c4ccccc4)C3)CC2)C[C@H]1Cc1ccccc1 (stereo partly drawn)', 'bin 1'),
  ('O=C(c1ccco1)N1CC[C@@H](N2CCN([C@H]3CCN(C(=O)c4cc(C(F)(F)F)cc(C(F)(F)F)c4)[C@H](Cc4ccc(Cl)c(Cl)c4)C3)CC2)C1', 'bin 0');
